Source of measurements: patent US10597388B2

For each record, write down the corresponding Plant response rating, Soybean.
# Tested on: soybean (Glycine max)
# TEST NAME: Test C greenhouse herbicide test, pre- and postemergence
# Format: in vivo
# SETTINGS: Preemergence, 62 g ai/ha; scale 0 to 100, 0 is no effect, 100 is complete control

Batch request: Plant response rating, Soybean per item, same order as input.
1. Cc1cc2ccccc2c(-c2c(O)c(C)nn(C)c2=O)c1C
2. CCC(=O)Oc1c(C)nn(C)c(=O)c1-c1ccc(F)c2ccccc12

10
45

Record request: Plant response rating, Soybean value, item "Cc1nn(C)c(=O)c(-c2ccc(Br)c3ccccc23)c1O" 20
